# target-system: T1, recombinant human ZNRF3 extracellular domain (human, UniProt Q9ULT6 56-219)
# T1 construct: extracellular domain; also called huZNRF3; human ZNRF3 ECD
# T1 sequence (looked up): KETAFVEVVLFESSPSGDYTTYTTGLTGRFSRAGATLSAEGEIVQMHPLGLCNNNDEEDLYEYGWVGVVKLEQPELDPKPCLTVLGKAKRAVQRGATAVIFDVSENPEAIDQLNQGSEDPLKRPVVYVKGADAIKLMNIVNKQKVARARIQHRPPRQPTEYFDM
# protocol-summary: SPR Biacore 8K; antibody captured on Protein A; ZNRF3 ECD analyte; 25 C
Recorded pKd, one value per entry.
Quick note: pKd values are minus log10 of concentrations in mol/L.

Task: For the binder shown here, ZNRF3-270 (antibody, V domains shown, Rat clone; VH/VL only) VH: EVQLVESGGGLVQPGESLKLSCSASGFTFSNYGMHWIRQVPGKGLDWVAYITNSGGSLYAAAVKGRFTISRDNAKNTLYLELTSLKPEDTAIYHCARGYSYPGPYWGRGTLVTVSS VL: DIQVTQSPSSLLASLGERVTITCQTGQSINNYLNWYQQRPGQAPLLLIYFATSLQTGVPSRFSGQYSGRSFTLTITSLEPEDIANYFCLQHYSPPYTFGAGTKLELR , give the reported pKd.
Output: 10.37
